Ref: PubChem BioAssay

# Subject Of Test: E3 ubiquitin-protein ligase XIAP (Homo sapiens) (UniProt P98170)
# Sequence (P98170 whole entry, looked up): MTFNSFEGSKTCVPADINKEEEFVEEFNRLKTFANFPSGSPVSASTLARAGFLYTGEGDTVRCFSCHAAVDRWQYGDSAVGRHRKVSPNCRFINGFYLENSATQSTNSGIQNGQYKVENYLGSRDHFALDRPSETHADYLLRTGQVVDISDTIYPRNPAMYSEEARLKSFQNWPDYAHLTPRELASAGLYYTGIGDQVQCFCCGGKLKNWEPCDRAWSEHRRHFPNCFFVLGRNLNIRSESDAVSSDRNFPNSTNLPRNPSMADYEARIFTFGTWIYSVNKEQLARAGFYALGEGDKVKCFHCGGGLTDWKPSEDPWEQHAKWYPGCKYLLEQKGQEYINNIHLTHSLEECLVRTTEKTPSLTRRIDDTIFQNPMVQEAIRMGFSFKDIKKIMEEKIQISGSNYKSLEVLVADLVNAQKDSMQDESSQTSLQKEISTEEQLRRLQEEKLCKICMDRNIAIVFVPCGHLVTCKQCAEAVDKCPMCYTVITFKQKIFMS
# Test Method Notes: XIAP binders, primary screen, biophysical, small-molecule microarray, fluorescence 635 nm (AID 1181);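 note: score merges 667 nm emission and signal to noise over triplicate slides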
# Details: small-molecule microarray binding, higher = more signal
Quantity: composite z-score

// known answers, use as guide
>>> result("COc1ccc(C#Cc2ccc3c(c2)[C@]2(C(=O)N3)[C@H](c3ccc(OCCO)cc3)N3[C@H](c4ccccc4)[C@H](c4ccccc4)OC(=O)[C@H]3[C@@H]2C(=O)N2CCc3cc(OC)c(OC)cc3C2)cc1")
0.107
>>> result("COc1cc(NN2C(C(O)C3CCCCC3)C=CC3C(=O)N(C)C(=O)C32)cc(OC)c1OC (centres undefined)")
0.279
>>> result("C=CC1c2cc(O)c(OC)cc2CCN1Cc1ccc([N+](=O)[O-])o1 (centres undefined)")
0.188

Please examine the following record next.
composite z-score reading for Cc1ccc(S[C@]2(C(=O)NCc3ccccc3)CC(=O)N(Cc3cc(C(F)(F)F)cc(C(F)(F)F)c3)[C@@H]2c2ccc(CO)cc2I)cc1 : -0.0622

* * *

# Test system: glycogen synthase kinase-3 (GSK3A per assay name; protocol says GSK3B)
# Test Method Notes: GSK3 binders on small-molecule microarrays, primary screen, biochemical, small-molecule microarray, 635 nm fluorescence, GSK3A (AID 1103); note: the record names both GSK3A and GSK3B
# Details: small-molecule microarray binding, fluorescence 635 nm; higher = more signal
Quantity: composite z-score
Just the number, please, no unit attached.

>>> numeric_readout("COc1ccc(C#Cc2ccc3c(c2)[C@]2(C(=O)N3)[C@H](c3ccc(OCCO)cc3)N3[C@H](c4ccccc4)[C@H](c4ccccc4)OC(=O)[C@H]3[C@@H]2C(=O)N2CCc3cc(OC)c(OC)cc3C2)cc1")
1.28
>>> numeric_readout("[N-]=[N+]=Nc1ccccc1C[C@]1(C(=O)O)N=C(c2ccc(OCCCO)cc2)O[C@H]1c1ccccc1N=[N+]=[N-]")
1.06
>>> numeric_readout("CC=CC(O)C1C=CC2C(=O)NC(=O)C2N1Nc1ccccn1 (centres undefined)")
0.717

# context switch: different compound, same composite z-score
Recorded result, [N-]=[N+]=NCc1ccccc1[C@@H]1OC(c2ccc(OCCCO)cc2)=N[C@]1(Cc1ccccc1)C(=O)NCCN1CCOCC1 , composite z-score: 0.616

* * *

# Test Method Notes: small-molecule microarray binders of probe aNog, primary screen, biochemical, biotinylated probe, 635/667 nm fluorescence (AID 1115);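 note: probe is biotinylated aNog protein used at 0.15 µg/mL for 1 h at 4 C; z-score combines 667 nm fluorescence of each spot with its signal to noise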
# Details: higher = more signal
Reported composite z-score is given for each of the following molecules.
Number only, please.

Worked examples follow.
>>> numeric_readout("CCCNC(=O)[C@@]1(C)c2ccccc2C(=O)N(Cc2ccccc2)[C@H]1c1ccc(CO)cc1")
-0.378
>>> numeric_readout("O=C1N(CCS(=O)(=O)c2ccccc2)Cc2ccccc2[C@@H]2OC(c3ccc(OCCCO)cc3)=N[C@]12CCS(=O)(=O)c1ccccc1")
0.445
>>> numeric_readout("Cc1c(NC(=O)/C(C#N)=C/c2ccccc2Cl)c(=O)n(-c2ccccc2)n1C")
-0.226
>>> numeric_readout("COCCOC(=O)N1C(=O)[C@@]2(c3cc(C#CC4(O)CCCCCC4)ccc31)[C@H](c1ccc(OCCO)cc1)N1[C@H](c3ccccc3)[C@H](c3ccccc3)OC(=O)[C@H]1[C@@H]2C(=O)Nc1nc2ccccc2s1")
0.721
>>> numeric_readout("CC(=O)N1CC(C(O)C2C=CC3C(=O)NC(=O)C3N2Nc2ccc(Cl)cc2Cl)c2ccccc21 (configuration not stated)")
1.5

Form field composite z-score, entry CC(=O)NCCCC[C@@H]1NC(=O)[C@@H]2C[C@H](C(=O)NCCCCCCN)[C@H](c3cccc(OCCO)c3)N2C1=O : -0.153

The value of composite z-score measured for the molecule [N-]=[N+]=Nc1ccccc1[C@@H]1OC(c2ccc(OCCCO)cc2)=N[C@]1(Cc1ccccc1)C(=O)NCc1ccccc1 turned out to be 1.95
